experiment: Cmax in human (healthy individuals) at 30 mg, single oral dose measured uo to 120 hrs; type: ADME; details: in vivo
endpoint: Cmax (ng/mL)
Expressed in ng/mL, but write only the number.

Qu. // Cmax lookup, key: Cc1cccnc1-c1ccc(-c2n[nH]c3ncc(-c4ccc5c(c4)CC[C@@H](N4C6COCC4C6)CC5)cc23)nc1
Ans. 12

====

test: AUCinfinity in Beagle dog at 1 mg/kg, iv measured up to 8 hrs by LC-MS/MS analysis; type: ADME, organism-based, Canis lupus familiaris; conditions: in vivo
endpoint: AUC(0-inf) (ng·h/mL)
Numeric only. Scale: ng·h/mL

Qu. If you can, please state the reported AUC(0-inf) value of CN(C)C(=O)c1ccc(-c2n[nH]c3ncc(-c4ccc5c(c4)CC[C@@H](N4C6COCC4C6)CC5)cc23)cc1 .
Ans. 560
